# protocol_text: AUC (0 to 24 hrs) in mouse at 25 mg/kg, iv
# Type: ADME, organism-based
# Set-up: time < 24 hr, dose 25 mg/kg, route intravenous
# measurement_conditions: plasma
quantity_kind: AUC(0-t) at 24 h (ng·h/mL)
Use ng·h/mL as the unit, but write only the number.

Prompt: Using the record for `Cn1cncc1[C@@](N)(c1ccc(C#N)cc1)c1cc2cc(C#N)cc(-c3cccc(F)c3)c2o1` , state its measured AUC(0-t) at 24 h.
Response: 15400

* * *

# protocol_text: Half life in mouse at 100 mg/kg, po
# Format: ADME, organism-based
# Design: dose 100 mg/kg, route oral
# measurement_conditions: in vivo
quantity_kind: half-life (h)
Entry rule: numbers only, all in h.

Prompt: Using the record for `Cn1cncc1[C@@](N)(c1ccc(C#N)cc1)c1cc2cc(C#N)cc(-c3cccc(F)c3)c2o1` , state its measured half-life.
Response: 12.3

* * *

# protocol_text: Oral bioavailability in mouse at 100 mg/kg
# Type: ADME, organism-based
# measurement_conditions: in vivo
quantity_kind: bioavailability (%)
Output spec: scalar in %, unitless text.

Prompt: Assign bioavailability to the following record: `Cn1cncc1[C@@](N)(c1ccc(C#N)cc1)c1cc2cc(C#N)cc(-c3cccc(F)c3)c2o1`
Response: 51

* * *

# protocol_text: AUC (0 to 24 hrs) in mouse at 25 mg/kg, po
# Type: ADME, organism-based
# Parameters: time < 24 hr, dose 25 mg/kg, route oral
# measurement_conditions: plasma
quantity_kind: AUC(0-t) at 24 h (ng·h/mL)
Give just the number in ng·h/mL; leave the unit off.

Prompt: Please supply the value of reported AUC(0-t) at 24 h for the item `Cn1cncc1[C@@](N)(c1ccc(C#N)cc1)c1cc2cc(C#N)cc(-c3cccc(F)c3)c2o1`
Response: 10200

* * *

# protocol_text: Apparent oral clearance in mouse at 100 mg/kg, po
# Assay type: ADME, organism-based
# Parameters: dose 100 mg/kg, route oral
# measurement_conditions: in vivo
quantity_kind: CL/F
# output: numeric value plus its unit

Prompt: Could you please provide reported CL/F for `Cn1cncc1[C@@](N)(c1ccc(C#N)cc1)c1cc2cc(C#N)cc(-c3cccc(F)c3)c2o1` ? Thanks!
Response: 2.46 L/h/kg

* * *

# protocol_text: Half life in mouse at 25 mg/kg, po
# Assay type: ADME, organism-based
# Design: dose 25 mg/kg, route oral
# measurement_conditions: in vivo
quantity_kind: half-life (h)
Write down the numeric answer in h and omit the unit.

Prompt: # return recorded half-life for entry `Cn1cncc1[C@@](N)(c1ccc(C#N)cc1)c1cc2cc(C#N)cc(-c3cccc(F)c3)c2o1`
Response: 2.4

* * *

# protocol_text: Oral bioavailability in mouse at 25 mg/kg
# Type: ADME, organism-based
# measurement_conditions: in vivo
quantity_kind: bioavailability (%)
Quick note: give the figure in %, leave out the unit.

Prompt: Tell me measured bioavailability for `Cn1cncc1[C@@](N)(c1ccc(C#N)cc1)c1cc2cc(C#N)cc(-c3cccc(F)c3)c2o1` please.
Response: 66

* * *

# protocol_text: Cmax in mouse at 25 mg/kg, po
# Type: ADME, organism-based
# Design: dose 25 mg/kg, route oral
# measurement_conditions: in vivo
quantity_kind: Cmax (ng/mL)
Respond numerically; units are ng/mL and should not be typed.

Prompt: Read off the recorded Cmax for `Cn1cncc1[C@@](N)(c1ccc(C#N)cc1)c1cc2cc(C#N)cc(-c3cccc(F)c3)c2o1`
Response: 1570

* * *

Reported log10 IC50 values are given for each entry in this list.
# tgt: Protein farnesyltransferase (Homo sapiens, UniProt P49354+P49356)
# protocol_text: Inhibition of human FTase
# Type: protein-complex assay
The figures below represent log10 of IC50, where IC50 is stated in nM.

Some compounds with recorded log10 IC50:
{"columns": ["compound", "tgt", "quantity_kind", "test_result"],
 "data": [
  ["COc1cccc(-c2cc(CO)cc3cc(C(O)(c4ccc(C#N)cc4)c4cncn4C)oc23)c1 (racemic)", "Protein farnesyltransferase (Homo sapiens, UniProt P49354+P49356)", "log10 IC50", 0.00],
  ["COc1cccc(-c2cc(CN(C)C)cc3cc(C(O)(c4ccc(C#N)cc4)c4cncn4C)oc23)c1 (racemic)", "Protein farnesyltransferase (Homo sapiens, UniProt P49354+P49356)", "log10 IC50", 1.04],
  ["Cn1cncc1C(O)(c1ccc(Cl)cc1)c1cc2cc([N+](=O)[O-])cc(-c3ccccc3)c2o1 (racemic)", "Protein farnesyltransferase (Homo sapiens, UniProt P49354+P49356)", "log10 IC50", 2.23],
  ["COc1cccc(-c2cc(C#N)cc3cc([C@](N)(c4ccc(C#N)cc4)c4cncn4C)oc23)c1", "Protein farnesyltransferase (Homo sapiens, UniProt P49354+P49356)", "log10 IC50", 0.08],
  ["Cn1cncc1C(O)(c1ccc([N+](=O)[O-])cc1)c1cc2cc([N+](=O)[O-])cc(-c3ccccc3)c2o1 (racemic)", "Protein farnesyltransferase (Homo sapiens, UniProt P49354+P49356)", "log10 IC50", 1.48],
  ["Cc1cccc(-c2cc([N+](=O)[O-])cc3cc(C(O)(c4ccc(C#N)cc4)c4cncn4C)oc23)c1 (racemic)", "Protein farnesyltransferase (Homo sapiens, UniProt P49354+P49356)", "log10 IC50", 1.04]
]}

Prompt: Identify the reported log10 IC50 for the following entry. Cn1cncc1C(O)(c1ccc(C#N)cc1)c1cc2cc([N+](=O)[O-])cc(-c3cccc(F)c3)c2o1 (racemic)
Response: 0.80

Prompt: Determine its reported log10 IC50: COc1cccc(-c2cc([N+](=O)[O-])cc3cc(C(O)(c4ccc(C#N)cc4)c4cncn4C)oc23)c1 (racemic)
Response: 0.93

Prompt: Fill in reported log10 IC50 for this entry: `Cn1cncc1[C@@](N)(c1ccc(C#N)cc1)c1cc2cc([N+](=O)[O-])cc(-c3ccccc3)c2o1`
Response: 0.18

Prompt: Look up and report measured log10 IC50 for this entry: `COc1cccc(-c2cc([N+](=O)[O-])cc3cc([C@](N)(c4ccc(C#N)cc4)c4cncn4C)oc23)c1`
Response: -0.10

Prompt: Name the recorded log10 IC50 of the compound listed here: COc1ccc(C(O)(c2cc3cc([N+](=O)[O-])cc(-c4ccccc4)c3o2)c2cncn2C)cc1 (racemic)
Response: 2.40

Prompt: Provide measured log10 IC50 value, entry: Cn1cncc1C(O)(c1ccc(Br)cc1)c1cc2cc([N+](=O)[O-])cc(-c3ccccc3)c2o1 (racemic)
Response: 2.56

Prompt: Supply measured log10 IC50 of Cn1cncc1C(O)(c1ccc(C#N)cc1)c1cc2cc([N+](=O)[O-])cc(-c3ccccc3F)c2o1 (racemic) in your reply.
Response: 0.52

Prompt: Given COC(=O)c1cc(-c2cccc(OC)c2)c2oc(C(O)(c3ccc(C#N)cc3)c3cncn3C)cc2c1 (racemic) , respond with its log10 IC50.
Response: 0.51

Prompt: Name the recorded log10 IC50 of the compound listed here: `Cn1cncc1[C@](N)(c1ccc(C#N)cc1)c1cc2cc([N+](=O)[O-])cc(-c3ccccc3)c2o1`
Response: 1.69

Prompt: Look up log10 IC50 of Cn1cncc1C(O)(c1ccc(C(=O)O)cc1)c1cc2cc([N+](=O)[O-])cc(-c3ccccc3)c2o1 (racemic) and report it.
Response: 2.93

Prompt: // fetch log10 IC50 given entry Cn1cncc1C(O)(c1ccc(C#N)cc1)c1cc2cc(C#N)cc(-c3ccccc3)c2o1 (racemic)
Response: 0.38

Prompt: Return log10 IC50 for the following compound: COc1cccc(-c2cc(C(N)=O)cc3cc(C(O)(c4ccc(C#N)cc4)c4cncn4C)oc23)c1 (racemic)
Response: -0.05

Prompt: Assign log10 IC50 to the following record: Cn1cncc1C(O)(c1ccc(I)cc1)c1cc2cc([N+](=O)[O-])cc(-c3ccccc3)c2o1 (racemic)
Response: 2.56

Prompt: Give reported log10 IC50 value for Cn1cncc1C(O)(c1ccc(C#N)cc1)c1cc2cc([N+](=O)[O-])cc(-c3ccccc3)c2o1 (racemic)
Response: 0.81

Prompt: Consider the compound `Cn1cncc1[C@@](N)(c1ccc(C#N)cc1)c1cc2cc(C#N)cc(-c3cccc(C#N)c3)c2o1` and give its recorded log10 IC50.
Response: -0.15

Prompt: Given the compound Cn1cncc1C(O)(c1ccc(C#N)cc1)c1cc2cc([N+](=O)[O-])cc(-c3ccc(F)cc3)c2o1 (racemic) , write its reported log10 IC50.
Response: 0.86

Prompt: Fill in reported log10 IC50 for this entry: COc1ccc(-c2cc([N+](=O)[O-])cc3cc(C(O)(c4ccc(C#N)cc4)c4cncn4C)oc23)cc1 (racemic)
Response: 0.60

The reported numbers originate from ChEMBL document CHEMBL1153291.
